Entries and their % ATP at 5 μM, RBC lysis assay values follow.
System: human red blood cells
Test: ATP release from red blood cells
Type: cell-based
Details: pH 5.4; 5 μM peptide, human RBCs, 37 °C, ATPLite kit on supernatant

See these solved cases before continuing.
substance | reported
WSELAQA LSELAQA LSELAQA LSELAQA [PSPF-EQA] | 3.61 % relative to Triton X-100 controls
WSDLAQG LSDLAQG LSDLAQG LSDLAQG [PSPF-DQG] | 8.61 % relative to Triton X-100 controls
WSELAQG LSELAQG LSELAQG LSELAQG [PSPF-EQG] | 9.52 % relative to Triton X-100 controls

Which % ATP at 5 μM, RBC lysis assay is listed for WSDLAKG LSDLAKG LSDLAKG LSDLAKG [PSPF-DKG] ?
24.1 % relative to Triton X-100 controls

Which % ATP at 5 μM, RBC lysis assay is listed for WSDLAKA LSDLAKA LSDLAKA LSDLAKA [PSPF-DKA] ?
5.79 % relative to Triton X-100 controls

Which % ATP at 5 μM, RBC lysis assay is listed for WSELAKG LSELAKG LSELAKG LSELAKG [PSPF-EKG] ?
27.3 % relative to Triton X-100 controls

Which % ATP at 5 μM, RBC lysis assay is listed for WSHLAKA LSHLAKA LSHLAKA LSHLAKA [PSPF-HKA] ?
5.7 % relative to Triton X-100 controls

Which % ATP at 5 μM, RBC lysis assay is listed for WSELAKA LSELAKA LSELAKA LSELAKA [PSPF-EKA] ?
3.66 % relative to Triton X-100 controls

Value source: paper PMC4843813
